The measurements presented in this section are drawn from the supplement of paper PMC6757056.

B1: library; a variant is named by its letters at N, in order (parent)
chain: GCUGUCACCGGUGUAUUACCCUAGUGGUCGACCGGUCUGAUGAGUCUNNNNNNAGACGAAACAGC

- Variants of: B1
- assay summary: normalized RNA/DNA level without ligand (relative to sTRSVctl = 100) (log10 (% of sTRSVctl)); ligand: hypoxanthine (xanthine aptamer); higher = less ribozyme self-cleavage, higher mRNA level
- measurement parameters: HEK293T, reporter: mCherry (pCS4076), ligand present: no
Measured normalized RNA/DNA level without ligand (log10) values are reported for all entries that follow.
measured quantity: normalized RNA/DNA level without ligand (log10)

>  <primary sequence>
GCUGUCACCGGUGUAUUACCCUAGUGGUCGACCGGUCUGAUGAGUCUGGUGUUAGACGAAACAGC [GGUGUU]

>  <numeric result>
1.88

$$$$
>  <primary sequence>
GCUGUCACCGGUGUAUUACCCUAGUGGUCGACCGGUCUGAUGAGUCUAUACGAAGACGAAACAGC [AUACGA]

>  <numeric result>
1.7

$$$$
>  <primary sequence>
GCUGUCACCGGUGUAUUACCCUAGUGGUCGACCGGUCUGAUGAGUCUUUUGGUAGACGAAACAGC [UUUGGU]

>  <numeric result>
1.8

$$$$
>  <primary sequence>
GCUGUCACCGGUGUAUUACCCUAGUGGUCGACCGGUCUGAUGAGUCUACCGUCAGACGAAACAGC [ACCGUC]

>  <numeric result>
2

$$$$
>  <primary sequence>
GCUGUCACCGGUGUAUUACCCUAGUGGUCGACCGGUCUGAUGAGUCUGAUCCGAGACGAAACAGC [GAUCCG]

>  <numeric result>
1.77

$$$$
>  <primary sequence>
GCUGUCACCGGUGUAUUACCCUAGUGGUCGACCGGUCUGAUGAGUCUGUACCUAGACGAAACAGC [GUACCU]

>  <numeric result>
1.91

$$$$
>  <primary sequence>
GCUGUCACCGGUGUAUUACCCUAGUGGUCGACCGGUCUGAUGAGUCUGGAAGCAGACGAAACAGC [GGAAGC]

>  <numeric result>
1.3

$$$$
>  <primary sequence>
GCUGUCACCGGUGUAUUACCCUAGUGGUCGACCGGUCUGAUGAGUCUCUGCGUAGACGAAACAGC [CUGCGU]

>  <numeric result>
1.93

$$$$
>  <primary sequence>
GCUGUCACCGGUGUAUUACCCUAGUGGUCGACCGGUCUGAUGAGUCUCUUAGGAGACGAAACAGC [CUUAGG]

>  <numeric result>
1.84

$$$$
>  <primary sequence>
GCUGUCACCGGUGUAUUACCCUAGUGGUCGACCGGUCUGAUGAGUCUUCUGUCAGACGAAACAGC [UCUGUC]

>  <numeric result>
1.96

$$$$
>  <primary sequence>
GCUGUCACCGGUGUAUUACCCUAGUGGUCGACCGGUCUGAUGAGUCUCCUCCUAGACGAAACAGC [CCUCCU]

>  <numeric result>
1.96

$$$$
>  <primary sequence>
GCUGUCACCGGUGUAUUACCCUAGUGGUCGACCGGUCUGAUGAGUCUCACAAUAGACGAAACAGC [CACAAU]

>  <numeric result>
1.78

$$$$
>  <primary sequence>
GCUGUCACCGGUGUAUUACCCUAGUGGUCGACCGGUCUGAUGAGUCUUUAAGGAGACGAAACAGC [UUAAGG]

>  <numeric result>
1.77

$$$$
